Tested on: YANK1
Construct: gene STK32A
Settings: concentration: 1 μM, replicates: in singlicate; n = 1
Measurement Name: %Inh

// worked examples, %Inh included
[[record]]
cpd_smiles = "CC[C@@H]1CO[C@H](C(=O)Nc2ccccc2)CN1c1cc(-c2ccc3c(N)n[nH]c3c2)nc(NC)n1"
measurement_name = "%Inh"
reading = "41%"

[[record]]
cpd_smiles = "CS(=O)(=O)CCNCc1nc(-c2ccc3ncnc(Nc4ccc5c(cnn5Cc5ccccc5)c4)c3c2)cs1.Cl.Cl"
measurement_name = "%Inh"
reading = "3%"

[[record]]
cpd_smiles = "CSc1ccc(-c2nc3n(c2-c2ccncc2)CCC3)cc1"
measurement_name = "%Inh"
reading = "0%"


Data request: Input CCc1ccc(-c2ccc3c(c2)-c2n[nH]cc2S(=O)(=O)N3C)cc1 , output reported %Inh.
Data returned: 0%

---

Test system: ACVR2B
Conditions: concentration: 1 μM, replicates: in singlicate; n = 1
Recorded %Inh by entry
# value in %; strip the unit string

[[record]]
compound = "Fc1ccc(-c2nc[nH]c2-c2ccncc2)cc1"
target_system = "ACVR2B"
measurement_name = "%Inh"
unit_abbreviation = "%"
reading = 50


Turning to the following compound.
Data request: Determine its reported %Inh: COc1ccc(Nc2nccc(N3CCC(NC(=O)C(C)c4ccc(Cl)cc4)CC3)n2)cc1 (centres unmarked)
Data returned: 0

---

Tested on: MKK7
Settings: concentration: 1 μM, replicates: in singlicate; n = 1
Measurement Name: %Inh (%)
Write the number in % without appending the unit.

[[record]]
compound = "Nc1nccc(-c2c(-c3ccc(F)cc3)ncn2C2CCN(Cc3ccccc3)CC2)n1"
measurement_name = "%Inh"
unit_abbreviation = "%"
reading = 0

[[record]]
compound = "O=C(Nc1n[nH]c2nc(-c3cccs3)c(Br)cc12)C1CC1"
measurement_name = "%Inh"
unit_abbreviation = "%"
reading = 0

[[record]]
compound = "Fc1ccc(-c2nc3n(c2-c2ccncc2)CCS3)cc1"
measurement_name = "%Inh"
unit_abbreviation = "%"
reading = 0


Data request: Respond only with %Inh recorded for CC(=O)c1cccc(NC(=O)NC2CCN(c3ccnc(Nc4ccc(F)cc4)n3)C2)c1 (stereo not drawn)
Data returned: 0

Data request: Give the reported %Inh for this compound. COC(=O)C(NC(=O)NC1CCN(c2ccnc(Nc3ccc(F)cc3)n2)C1)c1ccccc1 (stereo not drawn)
Data returned: 32

---

Tested on: ABL2
Conditions: concentration: 1 μM, replicates: in singlicate; n = 1
Quick reference: %Inh of the listed items.
Numeric answer plus unit only.

Examples with their reported %Inh follow.
[[record]]
compound = "O=c1cc(N2CCOCC2)nc2n(Cc3cccc(Cl)c3Cl)c3ccccc3n12"
measurement_name = "%Inh"
reading = "16%"

[[record]]
compound = "CC(=O)c1c(C)c2cnc(Nc3ccn(C)n3)nc2n(C2CCCC2)c1=O"
measurement_name = "%Inh"
reading = "0%"

[[record]]
compound = "CCCCc1nn2ncccc2c1-c1ccnc(NC2CC2)n1"
measurement_name = "%Inh"
reading = "0%"

[[record]]
compound = "O=C1NC(=O)C(c2ccc(Cl)cc2)=C1Nc1ccc(O)cc1"
measurement_name = "%Inh"
reading = "0%"

[[record]]
compound = "COc1ccc(CSc2nnc(-c3ccc4c(c3)CCO4)o2)cc1"
measurement_name = "%Inh"
reading = "8%"

[[record]]
compound = "NS(=O)(=O)c1cccc(N/C=C2\\C(=O)Nc3ccc(S(=O)(=O)Cc4c(Cl)cccc4Cl)cc32)c1"
measurement_name = "%Inh"
reading = "14%"

[[record]]
compound = "Cc1ccc(NC(=O)Nc2ccccc2F)cc1-c1ccc(C(=O)Nc2ccncc2)cc1"
measurement_name = "%Inh"
reading = "31%"

[[record]]
compound = "COc1ccc(Nc2nccc(N3CCC(NC(=O)c4cc5ccccc5s4)C3)n2)cc1 (stereo not drawn)"
measurement_name = "%Inh"
reading = "1%"


As a next step, examine the compound that follows.
Data request: Specify the recorded %Inh for COc1cc2ncnc(Nc3cccc(Br)c3)c2cc1OC.Cl , system: ABL2.
Data returned: 18%

---

Tested on: TAOK1;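 further: kd values determined as follow-up on hits from a single-replicate KINOMEscan panel screen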
Measurement Name: Kd

Data request: With TAOK1 as the test system, provide measured Kd for this compound: CNCc1ccc2nc(NC(=O)c3ccc(C(C)(C)C)cc3)cn2c1
Data returned: > 10 µM

---

System: STK36
Conditions: concentration: 1 μM, replicates: in singlicate; n = 1
A collection of compounds and their measured %Inh
Answer format: numeric, % implied, no suffix.

Worked cases, answers included:
[[record]]
compound = "CS(=O)(=O)CCNCc1nc(-c2ccc3ncnc(Nc4ccc5c(cnn5Cc5ccccc5)c4)c3c2)cs1.Cl.Cl"
target_system = "STK36"
unit_abbreviation = "%"
reading = 0

[[record]]
compound = "COc1ccc(Nc2nccc(N3CCC(NC(=O)C(C)c4ccc(Cl)cc4)C3)n2)cc1 (centres unmarked)"
target_system = "STK36"
unit_abbreviation = "%"
reading = 1

[[record]]
compound = "Cc1ccc(-c2nc(Nc3ccncc3)c3ccccc3n2)s1"
target_system = "STK36"
unit_abbreviation = "%"
reading = 0

[[record]]
compound = "Cc1ccc(NC(=O)Nc2ccc(Cl)cc2)cc1-c1ccc(C(=O)Nc2ccncc2)cc1"
target_system = "STK36"
unit_abbreviation = "%"
reading = 1

[[record]]
compound = "CC(=O)c1cccc(NC(=O)NC2CCN(c3ccnc(Nc4ccc(F)cc4)n3)C2)c1 (centres unmarked)"
target_system = "STK36"
unit_abbreviation = "%"
reading = 0


Data request: Answer with the recorded %Inh of CC(=O)c1c(C)c2cnc(Nc3ccn(C)n3)nc2n(C2CCCC2)c1=O only.
Data returned: 0

Data request: Specify measured %Inh for CS(=O)(=O)Cc1ccc(Nc2nccc(-c3c(-c4cccc(NC(=O)C5CCCCC5)c4)nn4ncccc34)n2)cc1 .
Data returned: 81

Data request: Give the reported %Inh for this compound. CNc1nc(-c2ccc3c(N)n[nH]c3c2)cc(N2C[C@@H](C(=O)NC3CCCCC3)OC[C@H]2C)n1
Data returned: 22

---

Below, each entry is listed alongside its reported %Inh.
System: CDC2L2
Settings: concentration: 1 μM, replicates: in singlicate; n = 1
Use % as the unit, but write only the number.

Example compounds with recorded %Inh:
[[record]]
cpd_smiles = "Cc1c(Cn2c3ccccc3n3c(=O)cc(N4CCOCC4)nc23)cccc1C(F)(F)F"
unit_abbreviation = "%"
reading = 0

[[record]]
cpd_smiles = "Fc1ccc(-c2nc3n(c2-c2ccncc2)CCS3)cc1"
unit_abbreviation = "%"
reading = 0

[[record]]
cpd_smiles = "COc1ccc(CSc2nnc(-c3ccc4ncsc4c3)o2)cc1C(F)(F)F"
unit_abbreviation = "%"
reading = 0

[[record]]
cpd_smiles = "O=c1cc(N2CCOCC2)nc2n(Cc3cccc(Cl)c3Cl)c3ccccc3n12"
unit_abbreviation = "%"
reading = 11


Field: next compound
Data request: Provide %Inh, system CDC2L2, entry Cn1cncc1-c1cc2c(Nc3ccc(OCc4ccccc4)cc3)ncnc2cn1
Data returned: 17

---

System: DDR2
Details: concentration: 1 μM, replicates: in singlicate; n = 1
Reported %Inh values for a set of compounds
Write the answer as a number in %, unit excluded.

Field: example entries. Status: answers known.
[[record]]
compound = "COc1ccc(Nc2nccc(N3CCC(NC(=O)C(C)c4ccc(Cl)cc4)C3)n2)cc1 (stereo not drawn)"
reading = 16

[[record]]
compound = "CCn1c(-c2ccccc2)nc2cnccc21"
reading = 13

[[record]]
compound = "c1ccc(-c2ccnc3[nH]ccc23)cc1"
reading = 26


Data request: State its %Inh for this compound: O=C(Nc1n[nH]c2nc(-c3cccs3)c(Br)cc12)C1CCCC1
Data returned: 0

Data request: Please report %Inh for the following compound: CCc1ccc(-c2ccc3c(c2)-c2n[nH]cc2S(=O)(=O)N3C)cc1
Data returned: 9

Data request: Return value of %Inh for input COc1ccc(Nc2nccc(-c3ccc(NC(=O)c4cc5cc(F)ccc5[nH]4)cc3)n2)cc1 , no commentary.
Data returned: 26

Data request: Fill in %Inh for record Cc1ccc(NC(=O)c2ccc(Cl)cc2)cc1-c1ccc(C(=O)Nc2ccncc2)cc1
Data returned: 36

Data request: Using the record for CS(=O)(=O)CCNCc1nc(-c2ccc3ncnc(Nc4ccc(OCc5ccccc5)c(Cl)c4)c3c2)cs1.Cl , state its measured %Inh.
Data returned: 40

Data request: For the compound Cc1ccc(NC(=O)Nc2ccc(Cl)c(C(F)(F)F)c2)cc1-c1ccc(C(=O)Nc2ccncc2)cc1 , give its measured %Inh value.
Data returned: 63

---

Test system: JNK3
Construct: gene MAPK10
Settings: concentration: 1 μM, replicates: in singlicate; n = 1
Hi! Could you tag entries with %Inh below 1% as criterion met, and those at or above as criterion not met? Much appreciated.

Record excerpt, results attached:
[[record]]
compound = "O=C1NC(=O)C(c2ccc(Cl)cc2)=C1Nc1cccc(Cl)c1"
group = "criterion not met"

[[record]]
compound = "CCn1c(-c2c(N)noc2C)nc2cnccc21"
group = "criterion not met"

[[record]]
compound = "COC(=O)C(Cc1ccccc1)NC(=O)NC1CCN(c2ccnc(Nc3ccc(F)cc3)n2)C1 (stereo not shown)"
group = "criterion met"

[[record]]
compound = "Fc1ccc(-c2nc3n(c2-c2ccncc2)CCS3)cc1"
group = "criterion not met"

[[record]]
compound = "COc1ccc(Nc2nccc(-c3ccc(NC(=O)c4cc5cc(F)ccc5[nH]4)cc3)n2)cc1"
group = "criterion not met"

[[record]]
compound = "CS(=O)(=O)CCNCc1nc(-c2ccc3ncnc(Nc4ccc(OCc5ccccc5)c(Cl)c4)c3c2)cs1.Cl"
group = "criterion met"

[[record]]
compound = "Nc1ncnc2occ(-c3ccc4c(c3)CCN4C(=O)Cc3cc(F)ccc3F)c12"
group = "criterion met"

[[record]]
compound = "COc1ccc(CSc2nnc(-c3ccc4c(c3)CCO4)o2)cc1"
group = "criterion met"


Data request: Lab log: compare recorded %Inh with 1%; is it strictly lower for CC(C)c1ccc(O)cc1Nc1ccnc2ccc(C(F)(F)F)cc12 ?
Data returned: criterion met

Data request: Does O=C1NC(=O)C(c2ccc(Cl)cc2)=C1Nc1ccc(O)cc1 have %Inh strictly under 1%?
Data returned: criterion met

Data request: Regarding Cc1ccc(NC(=O)Nc2ccccc2)cc1-c1ccc(C(=O)Nc2ccncc2)cc1 , kindly confirm whether its %Inh is beneath 1%.
Data returned: criterion not met

Data request: Given the entry CNCc1ccc2nc(NC(=O)c3ccc(C(C)(C)C)cc3)cn2c1 , would its reported %Inh be below 1%?
Data returned: criterion not met

Data request: Dear colleague, could you confirm whether %Inh of Fc1ccc(-c2nc[nH]c2-c2ccncc2)cc1 falls below 1%? Thanks.
Data returned: criterion not met
